Just for reference, patent US6703362 is where these values come from.

# Target Under Test: C2BBe1 fixed cells
# Measurement Description: competition ELISA on fixed cells; vs GST-P31
Ends that are not written are not given here. * marks the point of attachment. Dansyl = CN(C)c1cccc2c(S(=O)(=O)*)cccc12
Reported Metric: IC50 (nM)
Provide only the numeric value, understood in nM.

{"Binder": "K(Dansyl)SDHALGTNLRSDNAKEPGDYNCCGNGNSTGRKVFNRRRPSAIPT-NH2 (cysteine pairing not given here) [Z21(HAX42)]", "Units Label": "nM", "IC50": 1700}

Q: For K(Dansyl)SARDSGPAEDGSRAVRLNGVENANTRKSSRSNPRGRRHPGG-NH2 [ELAN024(P31)] , what is its reported IC50?
Result: 500
